ASSAY SYSTEM: T1, human IL-18 receptor alpha (IL-18Rα) (human, UniProt Q13478 19-329, limits assumed)
T1 construct: also called hu IL-18Ra; IL-18R alpha
T1 sequence (looked up): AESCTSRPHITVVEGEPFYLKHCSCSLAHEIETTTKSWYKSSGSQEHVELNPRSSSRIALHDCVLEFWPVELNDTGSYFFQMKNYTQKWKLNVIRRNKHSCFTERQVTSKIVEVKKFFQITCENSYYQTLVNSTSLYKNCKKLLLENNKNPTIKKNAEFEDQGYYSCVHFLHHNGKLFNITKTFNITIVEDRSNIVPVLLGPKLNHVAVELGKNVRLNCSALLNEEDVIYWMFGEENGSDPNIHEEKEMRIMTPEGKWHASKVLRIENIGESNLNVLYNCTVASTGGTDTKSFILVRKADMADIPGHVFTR
MEASUREMENT PROTOCOL: Octet BLI
pKd: −log10 of the molar value.
// NO strictly below 7 in pKd; YES otherwise

# BINDER, CAT
records = [
    ("IL-18 variant G3T, M60K (ligand) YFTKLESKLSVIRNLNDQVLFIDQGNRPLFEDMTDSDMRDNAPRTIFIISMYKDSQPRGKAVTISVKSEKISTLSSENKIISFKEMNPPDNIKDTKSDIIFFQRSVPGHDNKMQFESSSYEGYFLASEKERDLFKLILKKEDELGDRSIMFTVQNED", "NO"),
    ("IL-18 variant G3T, E6K, K53A (ligand, also called G3T, K53A, E6K) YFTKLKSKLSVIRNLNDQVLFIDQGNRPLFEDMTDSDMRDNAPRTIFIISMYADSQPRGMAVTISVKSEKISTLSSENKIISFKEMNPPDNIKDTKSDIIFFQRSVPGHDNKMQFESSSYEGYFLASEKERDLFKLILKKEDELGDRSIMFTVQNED", "YES"),
    ("IL-18 variant G3T, M60K, D157E (ligand) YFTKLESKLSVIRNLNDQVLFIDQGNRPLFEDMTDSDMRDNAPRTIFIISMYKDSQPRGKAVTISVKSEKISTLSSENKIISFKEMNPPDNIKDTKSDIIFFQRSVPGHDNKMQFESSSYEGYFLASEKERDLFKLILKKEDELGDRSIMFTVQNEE", "NO"),
    ("Comparator 1 (human IL-18 variant M51K, K53S, Q56L, P57A, M60L, S105D, D110S, N111R) (ligand) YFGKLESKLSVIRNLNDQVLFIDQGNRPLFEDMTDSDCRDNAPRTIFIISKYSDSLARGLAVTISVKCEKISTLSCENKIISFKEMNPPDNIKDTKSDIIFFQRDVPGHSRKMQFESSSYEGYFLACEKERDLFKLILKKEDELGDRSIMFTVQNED", "YES"),
]

Request: Could you tell me if the measured pKd of IL-18 variant G3V, M60K, D157E (ligand) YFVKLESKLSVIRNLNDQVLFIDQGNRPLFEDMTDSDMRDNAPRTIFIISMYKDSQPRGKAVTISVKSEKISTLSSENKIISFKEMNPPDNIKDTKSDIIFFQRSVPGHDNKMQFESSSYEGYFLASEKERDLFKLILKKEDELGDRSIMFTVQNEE reaches 7 or more?
Response: YES

Request: Thanks! And IL-18 variant G3V, E6K, K53A (ligand, also called G3V, K53A, E6K) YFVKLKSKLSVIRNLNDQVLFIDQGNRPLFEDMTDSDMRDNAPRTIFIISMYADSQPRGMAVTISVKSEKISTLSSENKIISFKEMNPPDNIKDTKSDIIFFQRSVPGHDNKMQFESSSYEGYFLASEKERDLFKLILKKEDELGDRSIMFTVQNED ?
Response: YES

Request: Cool, now IL-18 variant G3V, M60K (ligand) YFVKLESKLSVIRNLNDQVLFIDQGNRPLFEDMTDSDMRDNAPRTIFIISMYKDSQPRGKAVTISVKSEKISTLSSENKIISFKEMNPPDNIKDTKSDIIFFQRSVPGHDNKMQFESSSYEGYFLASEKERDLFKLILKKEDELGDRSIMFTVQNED
Response: YES

Reference source for all entries: patent US20240182536A1
